This section presents molecules with their documented emission maximum values.
test: solvent given as SMILES; details: in CS(C)=O
Write the number in nm without appending the unit.

Below are worked cases with known answers.
[
  {
    "MOLECULE": "CCNc1ccc(NCC)c2c1C(=O)c1ccccc1C2=O",
    "VALUE UNIT": "nm",
    "emission maximum": 672
  },
  {
    "MOLECULE": "COc1ccc(C2=CC(c3ccc4cc(N(C)C)ccc4c3)=[O+][B-](F)(F)O2)cc1",
    "VALUE UNIT": "nm",
    "emission maximum": 698
  },
  {
    "MOLECULE": "CCN(CC)c1ccc2cc(-c3csc(N)c3C#N)c(=O)oc2c1",
    "VALUE UNIT": "nm",
    "emission maximum": 482
  },
  {
    "MOLECULE": "CCOC(=O)C1=C(N)n2c(=O)c3ccccc3c(=O)n2C1c1ccc(C)cc1 (stereo not given)",
    "VALUE UNIT": "nm",
    "emission maximum": 517
  },
  {
    "MOLECULE": "CCCCCCCCC1(CCCCCCCC)c2cc(-c3ccc(C=C4C(=O)c5ccccc5C4=O)cc3)ccc2-c2ccc(-c3ccc(C=C4C(=O)c5ccccc5C4=O)cc3)cc21",
    "VALUE UNIT": "nm",
    "emission maximum": 596
  },
  {
    "MOLECULE": "CC(C)(C)c1ccc(C(C)(C)C)c(N2C(=O)c3cccc4c(-c5ccc(-c6ccccc6)s5)ccc(c34)C2=O)c1",
    "VALUE UNIT": "nm",
    "emission maximum": 557
  },
  {
    "MOLECULE": "NS(=O)(=O)c1ccc(N2N=C(c3ccc(O)cc3)CC2c2ccc(F)cc2)cc1 (stereo not given)",
    "VALUE UNIT": "nm",
    "emission maximum": 424
  },
  {
    "MOLECULE": "CC(C)(C)NS(=O)(=O)c1ccc2c(c1)C(=O)/C(=C1\\Sc3ccc(S(=O)(=O)NC(C)(C)C)cc3C1=O)S2",
    "VALUE UNIT": "nm",
    "emission maximum": 618
  },
  {
    "MOLECULE": "COc1ccc(-c2c3nc(cc4ccc([nH]4)c(-c4ccc(OC)c(OCCCC(=O)O)c4)c4nc(cc5ccc2[nH]5)CC4)CC3)cc1OCCCC(=O)O",
    "VALUE UNIT": "nm",
    "emission maximum": 738
  }
]

Ask: What emission maximum value was documented for this molecule, CCOC(=O)c1ccc(NC(=O)COc2cc3c4c([nH]c3c(C)c2C)C(=O)CCC4)cc1 ?
Reply: 426.09

---

This section presents compounds with their documented emission maximum values.
assay: solvent given as SMILES; conditions: in C1COCCO1
Just so you know, I need the unit written after the number.

Below are worked cases with known answers.
[
  {
    "COMPOUND": "CC(=O)Nc1ccc(C2=C/C(=C\\c3ccc(C#N)cc3)C(=O)O2)cc1",
    "EXPERIMENTAL VALUE": "521 nm"
  },
  {
    "COMPOUND": "Cc1ccc(-c2cc(-c3ccccc3)c(C#N)c(=S)[nH]2)cc1",
    "EXPERIMENTAL VALUE": "506 nm"
  },
  {
    "COMPOUND": "CC(=O)c1ccc(/C=C/C=C/C2=NC3C(=O)NC(N)=NC3N2[C@H]2C[C@H](O)[C@@H](CO)O2)cc1 (some centres undefined)",
    "EXPERIMENTAL VALUE": "494 nm"
  },
  {
    "COMPOUND": "Cc1nc2ccc(/C=C/c3ccc(N(C)C)cc3)cc2nc1-c1ccccc1",
    "EXPERIMENTAL VALUE": "526 nm"
  },
  {
    "COMPOUND": "COC(=O)c1ccc(/C=C2\\C=C(c3ccccc3)NC2=O)cc1",
    "EXPERIMENTAL VALUE": "544 nm"
  }
]

Ask: What emission maximum value was documented for this compound, CN(C)c1ccc(/C=C/C=C/c2nc3ccccc3o2)cc1 ?
Reply: 508 nm

Ask: What emission maximum value was documented for this compound, c1ccc(-c2nc(-c3ccc(-c4ccc(-n5c6ccccc6c6ccccc65)cc4)cn3)oc2-c2ccccc2)cc1 ?
Reply: 406 nm

Ask: What emission maximum value was documented for this compound, CCC1=C(C)C2=C(C)c3c(C)c(-c4csc(N5CCOCC5)n4)c(C)n3[B-](F)(F)[N+]2=C1C ?
Reply: 606 nm

---

test: solvent given as SMILES; settings: in ClCCl
MEASURED QUANTITY: emission maximum (nm)
Write the number in nm without appending the unit.

Below are worked cases with known answers.
[
  {
    "COMPOUND": "COc1ccc2c(c1)c1cc(OC)ccc1c1c2c2c(C(=O)NC(C)(C)C)ccc(C(=O)NC(C)(C)C)c2c2c3ccc(OC)cc3c3cc(OC)ccc3c21",
    "emission maximum (nm)": 498
  },
  {
    "COMPOUND": "CN(C)c1ccc(C2=Nc3ccc4c(C(F)(F)F)cc(C(F)(F)F)nc4[n+]3[B-](F)(F)O2)cc1",
    "emission maximum (nm)": 642
  },
  {
    "COMPOUND": "CC(C)(C)c1ccc(-c2c3cccc4c(-c5ccccc5)cc5c(-c6ccc(C(C)(C)C)cc6)c6cccc7c(-c8ccccc8)cc2c(c76)c5c43)cc1",
    "emission maximum (nm)": 465
  }
]

Ask: What emission maximum value was documented for this compound, CCC1=C(C)C2=C(c3c4ccccc4c(-c4ccccc4)c4ccccc34)c3c(C)c(CC)c(C)n3[B-](F)(F)[N+]2=C1C ?
Reply: 543

Ask: What emission maximum value was documented for this compound, Oc1ccccc1-c1nc2ccccc2s1 ?
Reply: 396

Ask: What emission maximum value was documented for this compound, CC(C)c1cccc(C(C)C)c1N1C(=O)c2ccc3c(-c4ccc(C(=O)O)cc4)c4c5ccc6c7c(ccc(c(-c8ccc(C(=O)O)cc8)c4c4ccc(c2c34)C1=O)c75)C(=O)N(c1c(C(C)C)cccc1C(C)C)C6=O ?
Reply: 682

Ask: What emission maximum value was documented for this compound, CC(C)c1cc(C(C)C)c(B2c3cc(N4c5ccccc5Oc5ccccc54)ccc3N(c3ccccc3)c3ccc(N4c5ccccc5Oc5ccccc54)cc32)c(C(C)C)c1 ?
Reply: 546.26

---

assay: solvent given as SMILES; conditions: in Cc1ccccc1
MEASURED QUANTITY: emission maximum (nm)
Write the number in nm without appending the unit.

Ask: What emission maximum value was documented for this compound, c1ccc(-c2nc(-c3ccccc3)nc(-n3c4ccccc4c4cc(-n5c6ccccc6c6ccccc65)ccc43)n2)cc1 ?
Reply: 502.82

Ask: What emission maximum value was documented for this compound, CC1(C)CC(/C=C/c2cn(-c3ccccc3)nc2-c2ccccc2)=CC(=C(C#N)C#N)C1 ?
Reply: 542

Ask: What emission maximum value was documented for this compound, CC(C)[Si](C#Cc1c2ccc(C(C)(C)C)cc2c(C#Cc2c3ccc(C(C)(C)C)cc3c(C#Cc3c4ccc(C(C)(C)C)cc4c(C#C[Si](C(C)C)(C(C)C)C(C)C)c4ccc(C(C)(C)C)cc34)c3ccc(C(C)(C)C)cc23)c2ccc(C(C)(C)C)cc12)(C(C)C)C(C)C ?
Reply: 589

Ask: What emission maximum value was documented for this compound, c1cc2ccc3cc4cccc5ccc6cc(c1)c2c3c6c54 ?
Reply: 436

Ask: What emission maximum value was documented for this compound, O=C(/C=C/c1cn(-c2ccccc2)nc1-c1ccccc1)c1c(O)c2ccccc2oc1=O ?
Reply: 480

Ask: What emission maximum value was documented for this compound, CC1(C)c2ccccc2N(c2ccc(-c3nc(C#N)c(C#N)nc3-c3ccc(N4c5ccccc5C(C)(C)c5ccccc54)cc3)cc2)c2ccccc21 ?
Reply: 620

Ask: What emission maximum value was documented for this compound, CC(C)(C)c1ccc(-c2nc3c4ccc(-c5cccc6ccccc56)cc4c4cc(-c5cccc6ccccc56)ccc4c3n2-c2ccc(C(C)(C)C)cc2)cc1 ?
Reply: 385

Ask: What emission maximum value was documented for this compound, CC(C)c1cc(C(C)C)c(B2c3ccccc3Oc3cc(N4c5ccccc5C5(c6ccccc6-c6ccccc65)c5ccccc54)ccc32)c(C(C)C)c1 ?
Reply: 456

Ask: What emission maximum value was documented for this compound, COc1cc(OC)cc(C2=[O+][B-](F)(F)OC(c3ccccc3)=C2)c1 ?
Reply: 505.51

Ask: What emission maximum value was documented for this compound, CN(C)c1ccc(C#Cc2ccc(C#N)cc2)cc1 ?
Reply: 427

Ask: What emission maximum value was documented for this compound, CC(C)(C)c1ccc(-c2c3ccccc3c3n2[B-](F)(F)[N+]2=Cc4c5ccccc5c(-c5ccc(C(C)(C)C)cc5)n4[B-](F)(F)[N+]2=C3)cc1 ?
Reply: 611

---

This section presents compounds with their documented emission maximum values.
experiment: solvent given as SMILES; settings: in Cc1ccccc1

Below are worked cases with known answers.
[
  {
    "COMPOUND": "F[B-]1(F)n2cccc2C=C2c3ccccc3C(c3ccc[nH]3)=[N+]21",
    "MEASURED QUANTITY": "emission maximum",
    "EXPERIMENTAL VALUE": "600 nm"
  },
  {
    "COMPOUND": "Oc1ccc(/N=C/c2ccccc2Oc2ccccc2)cc1",
    "MEASURED QUANTITY": "emission maximum",
    "EXPERIMENTAL VALUE": "410 nm"
  },
  {
    "COMPOUND": "CCCN1C(=O)c2c3c(c4c(c2C1=O)CCc1cc(-c2ccc(N(C)C)cc2)c(OC)cc1-4)-c1cc(OC)c(-c2ccc(N(C)C)cc2)cc1CC3",
    "MEASURED QUANTITY": "emission maximum",
    "EXPERIMENTAL VALUE": "548 nm"
  },
  {
    "COMPOUND": "COc1cc2c3cc(OC)c(OC)cc3c3cc4c(C)cc(=O)oc4cc3c2cc1OC",
    "MEASURED QUANTITY": "emission maximum",
    "EXPERIMENTAL VALUE": "463 nm"
  },
  {
    "COMPOUND": "COc1ccc2c(c1)c1ccccc1n2-c1nc2ccccc2nc1-n1c2ccccc2c2cc(OC)ccc21",
    "MEASURED QUANTITY": "emission maximum",
    "EXPERIMENTAL VALUE": "560 nm"
  }
]

Ask: What emission maximum value was documented for this compound, Cc1ccc(-c2c3ccc([nH]3)c3nc(c(-c4ccc([N+](=O)[O-])cc4)c4ccc([nH]4)c4ccc([nH]4)c(-c4ccc(C)cc4)c4ccc2o4)C=C3)cc1 ?
Reply: 737 nm

Ask: What emission maximum value was documented for this compound, Cc1ccc(C2=[N+]3C(=Cc4ccc(C)n4[B-]3(F)F)c3ccccc32)[nH]1 ?
Reply: 623 nm

Ask: What emission maximum value was documented for this compound, c1ccc(N(c2ccccc2)c2cc3c4c(c2)N(c2ccccc2)c2cc5c(cc2B4c2ccccc2N3c2ccccc2)B2c3ccccc3N(c3ccccc3)c3cc(N(c4ccccc4)c4ccccc4)cc(c32)N5c2ccccc2)cc1 ?
Reply: 468 nm

Ask: What emission maximum value was documented for this compound, CCC1(CC)c2ccccc2-c2ccc(C#Cc3ccc4ccc5cccc6ccc3c4c56)cc21 ?
Reply: 412 nm

Ask: What emission maximum value was documented for this compound, CC(C)(C)c1ccc(-c2nc3ccccc3nc2-c2cc(-c3nc4ccccc4nc3-c3ccc(C(C)(C)C)cc3)cc(-n3c4ccccc4c4ccccc43)c2)cc1 ?
Reply: 437 nm

Ask: What emission maximum value was documented for this compound, CCCCCCCCCCCCOc1ccc(C2=c3sc4ccccc4c3=[N+]3C2=Nc2c(-c4ccc(OCCCCCCCCCCCC)cc4)c4sc5ccccc5c4n2[B-]3(F)F)cc1 ?
Reply: 804 nm

Ask: What emission maximum value was documented for this compound, CCC1=C(C)C2=C(c3cc(C4=C5C(C)=C(CC)C(C)=[N+]5[B-](F)(F)n5c(C)c(CC)c(C)c54)cc(C4=C5C(C)=C(CC)C(C)=[N+]5[B-](F)(F)n5c(C)c(CC)c(C)c54)c3)c3c(C)c(CC)c(C)n3[B-](F)(F)[N+]2=C1C ?
Reply: 571 nm

Data provenance: the Deep4Chem optical property database
